Source listed as paper PMC5700166.

# measured target: GST-Ap-NF-kB RHD (Exaiptasia pallida (Aiptasia), UniProt A0A913YAJ5 2-422)
# Sequence: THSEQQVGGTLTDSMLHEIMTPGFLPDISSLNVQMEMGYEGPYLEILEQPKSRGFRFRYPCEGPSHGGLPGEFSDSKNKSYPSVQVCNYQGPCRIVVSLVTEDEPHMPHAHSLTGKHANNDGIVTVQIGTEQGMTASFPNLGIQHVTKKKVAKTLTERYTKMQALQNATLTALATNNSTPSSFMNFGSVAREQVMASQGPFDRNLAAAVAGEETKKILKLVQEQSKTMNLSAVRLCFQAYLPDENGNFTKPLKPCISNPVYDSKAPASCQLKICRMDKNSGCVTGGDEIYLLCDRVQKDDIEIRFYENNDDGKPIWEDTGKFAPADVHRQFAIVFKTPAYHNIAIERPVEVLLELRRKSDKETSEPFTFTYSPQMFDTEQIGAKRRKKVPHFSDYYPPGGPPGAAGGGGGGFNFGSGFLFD
# test summary: protein-binding microarray (PBM); PBM: ~300 nM protein, 6 mM HEPES pH 7.8, 80 mM KCl, 0.5 mM EDTA, 0.5 mM EGTA, 6% glycerol, 35 ng/ul poly-dIdC, 1% milk, 1 h, room temperature; high values mean tight binding
# setup conditions: dsDNA, one strand shown
Lab note: anything with binding signal below 4 z-score is marked t; values at 4 z-score or higher are marked f.

Field: below-cutoff. Rule: recorded binding signal strictly less than 4 z-score. Subject: CCGATTAACATCAGGGGGACAACTGATGTTAATCGGGTCTTGATTCGCTTGACGCTGCTG f

// repeat for CCGATTAACATCAGGGGAAAACCTGATGTTAATCGGGTCTTGATTCGCTTGACGCTGCTG and report f

Moving on to CCGATTAACATCAGGAGTTCCCATGATGTTAATCGGGTCTTGATTCGCTTGACGCTGCTG t

Also CCGATTAACATCAGGAAACCCCATGATGTTAATCGGGTCTTGATTCGCTTGACGCTGCTG ? f

Try this sequence next: CCGATTAACATCAGGAAGTACCCTGATGTTAATCGGGTCTTGATTCGCTTGACGCTGCTG t

And CCGATTAACATCAGAATTCCCGATGATGTTAATCGGGTCTTGATTCGCTTGACGCTGCTG ? t

Repeat with CCGATTAACATCAATTTCCCGCCTGATGTTAATCGGGTCTTGATTCGCTTGACGCTGCTG t

Field entry: CCGATTAACATCAGGGAAGCCCATGATGTTAATCGGGTCTTGATTCGCTTGACGCTGCTG t

Query CCGATTAACATCAGGGAAAACACTGATGTTAATCGGGTCTTGATTCGCTTGACGCTGCTG next t

----------
# measured target: GST-Aq-NF-kB (Amphimedon queenslandica, UniProt A9Y5G7 2-389)
# Sequence: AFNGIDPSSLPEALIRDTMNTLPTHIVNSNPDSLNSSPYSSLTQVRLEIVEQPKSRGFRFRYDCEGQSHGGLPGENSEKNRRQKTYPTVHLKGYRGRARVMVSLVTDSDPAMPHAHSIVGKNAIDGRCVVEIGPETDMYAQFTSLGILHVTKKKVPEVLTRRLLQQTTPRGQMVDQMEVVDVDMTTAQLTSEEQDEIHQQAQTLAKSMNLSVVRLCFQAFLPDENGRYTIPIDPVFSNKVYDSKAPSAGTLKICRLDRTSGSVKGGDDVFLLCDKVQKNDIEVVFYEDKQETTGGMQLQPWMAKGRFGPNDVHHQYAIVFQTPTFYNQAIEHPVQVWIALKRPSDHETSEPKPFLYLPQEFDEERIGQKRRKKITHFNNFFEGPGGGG
# test summary: protein-binding microarray (PBM); PBM: ~300 nM protein, 6 mM HEPES pH 7.8, 80 mM KCl, 0.5 mM EDTA, 0.5 mM EGTA, 6% glycerol, 35 ng/ul poly-dIdC, 1% milk, 1 h, room temperature; high values mean tight binding
# setup conditions: dsDNA, one strand shown
observable: binding signal (z-score)
Respond numerically; units are z-score and should not be typed.

For the sequence shown here, CCGATTAACATCAACTATCCCGCTGATGTTAATCGGGTCTTGATTCGCTTGACGCTGCTG , give the reported binding signal. 1.07

Moving on to the next sequence: CCGATTAACATCACATGTGGGAATGATGTTAATCGGGTCTTGATTCGCTTGACGCTGCTG 2.05

Continue with CCGATTAACATCAGGACGTCCCCTGATGTTAATCGGGTCTTGATTCGCTTGACGCTGCTG 7.4

What do we get for CCGATTAACATCAGGGGGAGATATGATGTTAATCGGGTCTTGATTCGCTTGACGCTGCTG ? 4.8

What do you get for CCGATTAACATCAAACGCCCCCCTGATGTTAATCGGGTCTTGATTCGCTTGACGCTGCTG ? 5.57

Field entry: CCGATTAACATCAAGGAAAGTACTGATGTTAATCGGGTCTTGATTCGCTTGACGCTGCTG 2.33

How about this sequence: CCGATTAACATCAGAGGAATTCCTGATGTTAATCGGGTCTTGATTCGCTTGACGCTGCTG 2.12

Item: CCGATTAACATCAAGGGACCCCCTGATGTTAATCGGGTCTTGATTCGCTTGACGCTGCTG 4.72

Follow-up entry: CCGATTAACATCAGAAATCCCCATGATGTTAATCGGGTCTTGATTCGCTTGACGCTGCTG 6.3

----------
Record form. Attribute: binding signal. Fill in for each entry.
# measured target: GST-Dm-Relish (Drosophila melanogaster, UniProt Q94527 99-473)
# Sequence: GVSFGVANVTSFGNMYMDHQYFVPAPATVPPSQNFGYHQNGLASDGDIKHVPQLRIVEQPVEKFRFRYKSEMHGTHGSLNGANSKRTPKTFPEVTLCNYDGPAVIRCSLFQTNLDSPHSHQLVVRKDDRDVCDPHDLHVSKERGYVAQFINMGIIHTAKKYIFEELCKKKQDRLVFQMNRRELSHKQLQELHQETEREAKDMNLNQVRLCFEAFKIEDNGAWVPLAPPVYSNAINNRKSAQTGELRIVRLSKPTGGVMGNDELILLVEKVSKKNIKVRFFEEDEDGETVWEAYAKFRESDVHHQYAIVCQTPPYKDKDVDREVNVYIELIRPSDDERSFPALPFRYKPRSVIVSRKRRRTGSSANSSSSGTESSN
# test summary: protein-binding microarray (PBM); PBM: ~300 nM protein, 6 mM HEPES pH 7.8, 80 mM KCl, 0.5 mM EDTA, 0.5 mM EGTA, 6% glycerol, 35 ng/ul poly-dIdC, 1% milk, 1 h, room temperature; high values mean tight binding
# setup conditions: dsDNA, one strand shown
Quick note: give the figure in z-score, leave out the unit.

If you can, please state the reported binding signal value of CCGATTAACATCAGGGGAAATACTGATGTTAATCGGGTCTTGATTCGCTTGACGCTGCTG . 9.53

Check CCGATTAACATCAACTTTTCCCCTGATGTTAATCGGGTCTTGATTCGCTTGACGCTGCTG too. 2.99

Consider next the sequence CCGATTAACATCAAGAGTTTCCCTGATGTTAATCGGGTCTTGATTCGCTTGACGCTGCTG in the same way. 2.43

What do you have for CCGATTAACATCACAAATCCCCCTGATGTTAATCGGGTCTTGATTCGCTTGACGCTGCTG ? 7.73

Also need CCGATTAACATCAATATTTCCCCTGATGTTAATCGGGTCTTGATTCGCTTGACGCTGCTG , thanks. 5.87

Now the sequence CCGATTAACATCAAGGGACCCCCTGATGTTAATCGGGTCTTGATTCGCTTGACGCTGCTG 7.64

What would you report for CCGATTAACATCAGGGGACTATATGATGTTAATCGGGTCTTGATTCGCTTGACGCTGCTG ? 2.85

One more sequence: CCGATTAACATCACCCCCCCCCATGATGTTAATCGGGTCTTGATTCGCTTGACGCTGCTG 5.37

Likewise for CCGATTAACATCAGGCCTTTCCATGATGTTAATCGGGTCTTGATTCGCTTGACGCTGCTG ? 1.71

----------
# measured target: GST-Nv-NF-kB (Cys allele) (Nematostella vectensis, UniProt E5G601 2-411)
# Sequence: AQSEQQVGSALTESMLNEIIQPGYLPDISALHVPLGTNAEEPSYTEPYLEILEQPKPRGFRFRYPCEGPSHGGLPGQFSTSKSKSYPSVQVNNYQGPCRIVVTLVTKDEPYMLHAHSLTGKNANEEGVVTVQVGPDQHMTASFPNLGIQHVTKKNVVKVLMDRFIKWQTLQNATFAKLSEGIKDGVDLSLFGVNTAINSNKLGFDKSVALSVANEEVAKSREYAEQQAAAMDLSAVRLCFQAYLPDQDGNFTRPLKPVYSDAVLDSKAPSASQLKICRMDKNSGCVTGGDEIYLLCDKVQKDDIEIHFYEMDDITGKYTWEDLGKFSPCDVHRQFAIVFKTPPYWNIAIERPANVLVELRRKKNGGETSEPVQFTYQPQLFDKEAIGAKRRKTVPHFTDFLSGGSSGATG
# test summary: protein-binding microarray (PBM); PBM: ~300 nM protein, 6 mM HEPES pH 7.8, 80 mM KCl, 0.5 mM EDTA, 0.5 mM EGTA, 6% glycerol, 35 ng/ul poly-dIdC, 1% milk, 1 h, room temperature; Ap Aiptasia and Nv Nematostella (sea anemones) / Co Capsaspora / Aq Amphimedon (sponge) / Dm Drosophila / Hu human; RHD is the Rel homology domain; high values mean tight binding
# setup conditions: dsDNA, one strand shown
observable: binding signal
Field: value (include unit after the number)

Query: binding signal; subject: CCGATTAACATCACACATGCCCCTGATGTTAATCGGGTCTTGATTCGCTTGACGCTGCTG 1.37 z-score

Thanks! And CCGATTAACATCAGGGGCAGTACTGATGTTAATCGGGTCTTGATTCGCTTGACGCTGCTG ? 1.84 z-score

Then what about the sequence CCGATTAACATCAGGGGGAGAACTGATGTTAATCGGGTCTTGATTCGCTTGACGCTGCTG ? 5.02 z-score

CCGATTAACATCAACATTTTCCCTGATGTTAATCGGGTCTTGATTCGCTTGACGCTGCTG , same question. 5.79 z-score

Further, for CCGATTAACATCAGGGAAAGCTATGATGTTAATCGGGTCTTGATTCGCTTGACGCTGCTG ? 3.99 z-score
